STUDY TARGET: T1, recombinant C-terminally truncated RSV (A2 strain) F protein (RSV (A2 strain), UniProt P03420 26-524)
T1 construct: extracellular domain; also called truncated F protein; extracellular domain of the F protein from RSV A2
T1 sequence (P03420 26-109, chain 1 of 2): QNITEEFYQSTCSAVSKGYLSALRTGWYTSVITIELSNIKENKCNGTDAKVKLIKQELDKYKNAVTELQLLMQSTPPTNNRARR
T1 sequence (P03420 137-524, chain 2 of 2): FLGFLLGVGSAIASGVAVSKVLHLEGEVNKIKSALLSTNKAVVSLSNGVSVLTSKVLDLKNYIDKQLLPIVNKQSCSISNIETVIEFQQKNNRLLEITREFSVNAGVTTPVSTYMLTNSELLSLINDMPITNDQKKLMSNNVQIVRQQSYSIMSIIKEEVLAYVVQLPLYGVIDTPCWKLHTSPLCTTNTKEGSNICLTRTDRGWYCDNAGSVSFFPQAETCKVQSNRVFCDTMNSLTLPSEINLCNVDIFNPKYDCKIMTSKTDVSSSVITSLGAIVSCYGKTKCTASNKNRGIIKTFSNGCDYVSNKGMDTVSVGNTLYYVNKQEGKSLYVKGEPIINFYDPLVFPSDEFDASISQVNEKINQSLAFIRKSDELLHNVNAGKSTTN
ASSAY OVERVIEW: SPR (BIAcore), Fab over immobilised F
pKd: −log10 of the molar value.
PARAMETER MEASURED: pKd

*Q* Which measured pKd value corresponds to AFSF Fab (Fab, name in Kabat numbering, V domains shown) VH: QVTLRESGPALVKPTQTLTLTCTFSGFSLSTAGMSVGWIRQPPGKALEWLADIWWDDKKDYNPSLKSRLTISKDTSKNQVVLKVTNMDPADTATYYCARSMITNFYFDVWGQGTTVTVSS VL: DIQMTQSPSTLSASVGDRVTITCSASSSVGYMHWYQQKPGKAPKLLIYDTSKLASGVPSRFSGSGSGTEFTLTISSLQPDDFATYYCFQGSFYPFTFGGGTKVEIK ?
*A* ≥ 10.36

*Q* Which measured pKd value corresponds to AFFG Fab (Fab, name in Kabat numbering, V domains shown) VH: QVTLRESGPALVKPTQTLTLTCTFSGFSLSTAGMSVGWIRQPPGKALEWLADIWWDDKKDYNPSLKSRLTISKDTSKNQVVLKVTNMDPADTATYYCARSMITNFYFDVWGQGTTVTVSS VL: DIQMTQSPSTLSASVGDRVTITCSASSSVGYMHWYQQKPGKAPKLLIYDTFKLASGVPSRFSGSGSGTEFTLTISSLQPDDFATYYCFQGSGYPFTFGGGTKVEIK ?
*A* ≥ 10.42

*Q* Which measured pKd value corresponds to AFFY Fab (Fab, name in Kabat numbering, V domains shown) VH: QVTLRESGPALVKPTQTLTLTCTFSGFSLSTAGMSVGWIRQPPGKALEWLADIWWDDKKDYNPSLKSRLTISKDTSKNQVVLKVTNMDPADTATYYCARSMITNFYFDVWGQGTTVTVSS VL: DIQMTQSPSTLSASVGDRVTITCSASSSVGYMHWYQQKPGKAPKLLIYDTFKLASGVPSRFSGSGSGTEFTLTISSLQPDDFATYYCFQGSYYPFTFGGGTKVEIK ?
*A* ≥ 10.39
